- assay_target: Bromodomain adjacent to zinc finger domain protein 2B (Homo sapiens) (UniProt Q9UIF8)
- Sequence (Q9UIF8 whole entry, looked up, the tested form may be a part): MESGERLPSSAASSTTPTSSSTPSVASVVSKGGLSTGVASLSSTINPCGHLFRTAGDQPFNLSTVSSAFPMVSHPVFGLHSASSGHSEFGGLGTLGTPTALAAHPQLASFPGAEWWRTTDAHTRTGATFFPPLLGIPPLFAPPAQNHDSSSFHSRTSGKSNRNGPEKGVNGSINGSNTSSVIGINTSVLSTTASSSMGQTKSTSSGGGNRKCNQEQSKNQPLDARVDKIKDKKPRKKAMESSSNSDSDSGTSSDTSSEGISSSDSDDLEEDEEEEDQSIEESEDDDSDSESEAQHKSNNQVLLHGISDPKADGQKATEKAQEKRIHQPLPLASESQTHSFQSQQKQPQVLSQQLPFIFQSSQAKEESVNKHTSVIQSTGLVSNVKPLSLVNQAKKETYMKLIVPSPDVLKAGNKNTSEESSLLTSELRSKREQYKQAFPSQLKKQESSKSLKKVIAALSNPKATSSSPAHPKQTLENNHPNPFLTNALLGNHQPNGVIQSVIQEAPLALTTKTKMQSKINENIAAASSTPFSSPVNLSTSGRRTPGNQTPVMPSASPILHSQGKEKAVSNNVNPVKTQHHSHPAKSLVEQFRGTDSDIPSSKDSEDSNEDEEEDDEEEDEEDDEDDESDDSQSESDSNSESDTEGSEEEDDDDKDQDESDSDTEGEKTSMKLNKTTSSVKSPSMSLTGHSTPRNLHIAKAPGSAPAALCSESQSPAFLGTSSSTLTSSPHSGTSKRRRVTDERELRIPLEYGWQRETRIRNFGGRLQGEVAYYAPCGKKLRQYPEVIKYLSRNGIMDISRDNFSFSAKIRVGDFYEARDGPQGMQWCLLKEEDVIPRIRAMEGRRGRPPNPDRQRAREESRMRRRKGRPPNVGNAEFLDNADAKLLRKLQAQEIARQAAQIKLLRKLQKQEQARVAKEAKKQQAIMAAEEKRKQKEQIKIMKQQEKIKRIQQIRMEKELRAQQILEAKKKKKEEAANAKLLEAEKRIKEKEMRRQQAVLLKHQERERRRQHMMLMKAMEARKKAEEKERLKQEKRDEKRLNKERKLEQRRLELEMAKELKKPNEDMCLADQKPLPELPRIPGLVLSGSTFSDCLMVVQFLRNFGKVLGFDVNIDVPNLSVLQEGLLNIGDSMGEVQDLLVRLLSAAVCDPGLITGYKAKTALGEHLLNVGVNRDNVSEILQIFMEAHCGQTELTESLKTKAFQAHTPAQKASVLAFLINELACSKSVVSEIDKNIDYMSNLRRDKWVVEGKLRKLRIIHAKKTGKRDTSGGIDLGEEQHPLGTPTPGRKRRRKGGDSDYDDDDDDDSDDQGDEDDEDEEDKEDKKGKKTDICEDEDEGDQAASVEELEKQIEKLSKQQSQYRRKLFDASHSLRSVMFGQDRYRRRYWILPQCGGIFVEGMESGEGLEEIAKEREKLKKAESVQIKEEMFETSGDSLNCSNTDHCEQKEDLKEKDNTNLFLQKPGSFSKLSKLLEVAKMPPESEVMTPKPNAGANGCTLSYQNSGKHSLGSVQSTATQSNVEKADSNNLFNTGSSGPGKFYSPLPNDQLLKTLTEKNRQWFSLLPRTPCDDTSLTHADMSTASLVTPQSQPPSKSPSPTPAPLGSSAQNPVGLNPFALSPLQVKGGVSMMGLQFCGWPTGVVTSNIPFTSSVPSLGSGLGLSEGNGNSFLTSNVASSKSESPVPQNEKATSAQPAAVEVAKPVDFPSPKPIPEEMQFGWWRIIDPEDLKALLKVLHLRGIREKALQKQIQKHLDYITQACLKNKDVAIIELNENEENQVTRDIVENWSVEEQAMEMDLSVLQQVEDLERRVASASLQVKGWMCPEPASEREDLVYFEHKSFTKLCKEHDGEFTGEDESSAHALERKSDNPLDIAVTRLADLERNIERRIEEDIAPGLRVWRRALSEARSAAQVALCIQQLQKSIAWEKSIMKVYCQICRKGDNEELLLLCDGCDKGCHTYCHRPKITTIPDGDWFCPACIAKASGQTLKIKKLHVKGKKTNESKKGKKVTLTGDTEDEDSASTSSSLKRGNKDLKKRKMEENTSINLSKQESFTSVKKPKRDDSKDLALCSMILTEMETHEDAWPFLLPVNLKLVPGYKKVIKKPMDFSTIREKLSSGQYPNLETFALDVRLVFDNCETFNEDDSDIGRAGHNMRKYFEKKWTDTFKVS
- measurement_notes: qHTS Assay for Inhibitors of BAZ2B; further: nearly all actives have a fitted effect of over 60% in size
- stated_conditions: AlphaScreen BAZ2B-H3K14Ac peptide displacement; series mostly up to 114 µM
Screen size: about 360,000 compounds; about 16,000 (4.4%) were called active. Another 9% or so got no clear call; they are omitted. The call rests on the fitted dose curve; in most records, active means well fitted inhibition curve with a large enough effect; inconclusive means small, poorly fitted or top-dose-only effect; inactive means no such curve, though single readings can be large or run the other way. The entries come from a sample that favours actives as a whole.
Give your call using only these classes: class 1 (active), class 0 (inactive)

Observe how each entry below is paired with its result.
- compound: "Cc1cc2c(cc3c(SCc4cccc(Cl)c4)nnc(C)n32)o1"
  label_class: "class 1"
- compound: "COc1ccccc1-c1nnc(C2CCN(C(=O)c3ccc(Cl)cc3)CC2)o1"
  label_class: "class 0"
- compound: "C=CCn1c2ccccc2c2nnc(SC(CC)C(=O)Nc3nc(C)c(C(=O)OCC)s3)nc21 (stereo not given)"
  label_class: "class 0"
- compound: "O=C(c1ccco1)N1CCN=C1SCc1cccc(Cl)c1"
  label_class: "class 0"
- compound: "O=C(c1ccc(C(F)(F)F)cc1)N1CCC(c2nc(-c3ccc(S(=O)(=O)N4CCCC4)cc3)no2)CC1"
  label_class: "class 0"

Field: outcome | Entry: `C=CCn1c2ccccc2c2nnc(SCc3[nH]c(=O)[nH]c3C(=O)CCCCC(=O)OCC)nc21`
class 1

Field: outcome | Entry: `CCc1cccc(C)c1NS(=O)(=O)c1ccc(-c2cc(C)no2)s1`
class 0

Field: outcome | Entry: `Cc1cc2c(cc3c(SCc4nc(-c5ccccc5)oc4C)nnc(C)n32)o1`
class 0

Field: outcome | Entry: `CCc1ccc(NC(=O)c2cnc3c(-c4ccccc4)c(C)nn3c2C)cc1`
class 0

Field: outcome | Entry: `COc1ccc(-c2nc3sc(CCNC(=O)C(C)(C)C)c(C)n3n2)cc1`
class 0

====

- assay_target: Bromodomain adjacent to zinc finger domain protein 2B (Homo sapiens) (UniProt Q9UIF8)
- measurement_notes: qHTS Assay for Inhibitors of BAZ2B; further: nearly all actives have a fitted effect of over 60% in size
- stated_conditions: AlphaScreen BAZ2B-H3K14Ac peptide displacement; series mostly up to 114 µM
Among all 360,000 compounds or so, about 16,000 (4.4%) were called active. Another 9% or so got no clear call; they are omitted. Calls follow the shape of the dose curve; as a rule, active = well fitted inhibition curve with a large enough effect; inconclusive = small, poorly fitted or top-dose-only effect; inactive = no such curve, though single readings can be large or run the other way. The sample holds actives, similar compounds and a random draw of the others, so the mix is not that of the screen.
Give your call using only these classes: YES = active, NO = inactive

Observe how each entry below is paired with its result.
- molecule: "Cc1ccc(C)c(N2C(=O)N(Cc3c(F)cccc3Cl)c3ccccc3S2(=O)=O)c1"
  label_class: "NO"
- molecule: "CCOc1ccc2nc(N3CCCC(C(=O)Nc4cc(C)ccc4C)C3)sc2c1 (stereo unspecified)"
  label_class: "NO"
- molecule: "C=CCNc1scc(-c2ccccc2)[n+]1CC=C"
  label_class: "YES"
- molecule: "O=C(CNC(=O)c1cccnc1)N/N=C/c1cccnc1"
  label_class: "NO"
- molecule: "Cc1ccccc1CN1CCC(CNC(=O)c2c(C)oc3ncnc(N4CCCCC4)c23)CC1"
  label_class: "NO"
- molecule: "Cc1ccc(CCCOC(=O)C[N+]2(C)CCCCC2)cc1"
  label_class: "NO"
- molecule: "COc1cccc(/C=N\\NC(=O)C2=NNC(=O)C2C)c1O (stereo unspecified)"
  label_class: "YES"
- molecule: "O=C1CN(C(=O)Nc2ccccc2C(F)(F)F)C(c2ccccc2)c2c(sc3c2CCCC3)N1 (stereo unspecified)"
  label_class: "NO"
- molecule: "CCOc1ccc2[nH]c(C(=O)N/N=C/c3cccc(OC)c3OC)cc2c1"
  label_class: "NO"
- molecule: "CC(C)(C)OC(=O)N1CCC(c2c(C(=O)NCCc3ccsc3)cnn2-c2ccc(F)cc2F)CC1"
  label_class: "NO"

Field: outcome | Entry: `Cc1ccc(NC(=O)Nc2ccccc2)c(Br)c1`
NO

====

- assay_target: Bromodomain adjacent to zinc finger domain protein 2B (Homo sapiens)
- measurement_notes: qHTS Assay for Inhibitors of BAZ2B; further: nearly all actives have a fitted effect of over 60% in size
- stated_conditions: AlphaScreen BAZ2B-H3K14Ac peptide displacement; series mostly up to 114 µM
The campaign covered roughly 360,000 compounds. About 16,000 (4.4%) were called active. Another 9% or so got no clear call; they are omitted. The call rests on the fitted dose curve; in most records, active means well fitted inhibition curve with a large enough effect; inconclusive means small, poorly fitted or top-dose-only effect; inactive means no such curve, though single readings can be large or run the other way. Many of the other results were omitted from the sample, so actives are more common in it than they were.
Give your call using only these classes: active, inactive

Observe how each entry below is paired with its result.
- molecule: "CC(C)(C)OC(=O)N1CCC(c2c(C(=O)N3CCN(c4cccc(Cl)c4)CC3)cnn2-c2cccc(Cl)c2)CC1"
  assay_target: "Bromodomain adjacent to zinc finger domain protein 2B (Homo sapiens)"
  label_class: "inactive"
- molecule: "CCOC(=O)C1CCN(C(=O)/C=C/c2cc(OC)c(OC)c(OC)c2)CC1"
  assay_target: "Bromodomain adjacent to zinc finger domain protein 2B (Homo sapiens)"
  label_class: "inactive"
- molecule: "COc1ccc(Cc2nc3ccc(C(=O)NCc4ccccc4C)cc3o2)cc1"
  assay_target: "Bromodomain adjacent to zinc finger domain protein 2B (Homo sapiens)"
  label_class: "inactive"

Field: outcome | Entry: `Cc1ccc(Cn2c(C)c3cnn(CC(=O)NCc4ccccc4)c(=O)c3c2C)cc1`
inactive

Field: outcome | Entry: `O=C(CCn1c(=O)c2sccc2n(Cc2ccc(F)cc2)c1=O)NCc1ccc2c(c1)OCO2`
inactive

Field: outcome | Entry: `Cc1ccc(S(=O)(=O)N2CCN(CC(=O)N/N=C/c3cc([N+](=O)[O-])ccc3Cl)CC2)cc1`
inactive

Field: outcome | Entry: `COc1cc(OC)cc(C(=O)NCCc2csc3nc(-c4ccccc4F)nn23)c1`
inactive

Field: outcome | Entry: COc1ccc(CCNC(=O)c2cc3cccc4c3n2CC(C)S4)c(OC)c1OC (stereo unspecified)
inactive

Field: outcome | Entry: `O=C(NCc1ccccc1Cl)c1cccn1-c1nnc(N2CCCCC2)s1`
inactive

Field: outcome | Entry: `CCc1cccc(NC(=O)CN(c2ccc(C)c(C)c2)S(=O)(=O)c2ccsc2C(=O)OC)c1`
inactive

Field: outcome | Entry: `CC(C)CNc1ncnc2c1nnn2C`
inactive

Field: outcome | Entry: CCOC(=O)c1cc2c(=O)n3ccccc3nc2n(CC2CCCO2)c1=NC(=O)c1ccccc1Br (stereo unspecified)
inactive

Field: outcome | Entry: CCOC(=O)C1CCCCN1Cc1ccc(OC)c(OC)c1OC (stereo unspecified)
active

Field: outcome | Entry: Cc1ccc(CCNC(=O)c2ccc3c(c2)nc2n3CCC(C)C2)cc1 (stereo unspecified)
inactive

====

- assay_target: Bromodomain adjacent to zinc finger domain protein 2B (Homo sapiens)
- measurement_notes: qHTS Assay for Inhibitors of BAZ2B; further: nearly all actives have a fitted effect of over 60% in size
- stated_conditions: AlphaScreen BAZ2B-H3K14Ac peptide displacement; series mostly up to 114 µM
The whole screen tested about 360,000 compounds, of which about 16,000 (4.4%) were called active. Inconclusive results (about 9%) are left out. Calls come from the whole dose curve; as a rule, active = well fitted inhibition curve with a large enough effect; inconclusive = small, poorly fitted or top-dose-only effect; inactive = no such curve, though single readings can be large or run the other way. What follows is part of a selection rich in actives, with near analogues and random picks from the rest.
Give your call using only these classes: 1 (active), -1 (inactive)

Observe how each entry below is paired with its result.
- molecule: "Cc1ccc(N2CC(c3nnc(Cc4ccccc4Cl)o3)CC2=O)cc1 (stereo not drawn)"
  label_class: -1
- molecule: "COc1cccc(OCC(O)CN2CCN(CCO)CC2)c1 (stereo not drawn)"
  label_class: -1
- molecule: "Cc1cccc(NC(=O)c2cccc(S(=O)(=O)N3CCCC3)c2)n1"
  label_class: -1
- molecule: "COc1cccc(NC(=O)NCCN2CCCCC2)c1"
  label_class: -1
- molecule: "CCOc1ccc(NCCC(=O)c2ccc3c(c2)OCO3)cc1"
  label_class: 1

Field: outcome | Entry: `COC(=O)CCNc1ccc2c(c1)OCCO2`
-1

Field: outcome | Entry: `Clc1cccc(Cl)c1OCCOCCNCc1ccccc1`
1

Field: outcome | Entry: CC1CCN(CC(O)COc2ccc(C(=O)c3ccccc3)cc2)CC1 (stereo not drawn)
-1

Field: outcome | Entry: `O=C(CSc1ncc(-c2ccccc2)[nH]1)Nc1ccc(F)cc1F`
-1

Field: outcome | Entry: `C/C=C/c1ccc(OCCCCN2CCC(C)CC2)c(OC)c1`
1

Field: outcome | Entry: Cc1ccc(C)c(N2CCN(C(=O)C3CCC(CNS(=O)(=O)c4cccs4)CC3)CC2)c1 (stereo not drawn)
-1

Field: outcome | Entry: `COc1cc(C(=O)N[C@@H](C)C(=O)NCc2ccco2)cc(OC)c1OC`
-1

Field: outcome | Entry: `Cc1ccccc1CCNC(=O)C1CCN(c2nc3ccccc3nc2C(F)(F)F)CC1`
-1

Field: outcome | Entry: `CCOc1ccc(CCNC(=O)c2csc3c2CCCCC3)cc1`
-1

Field: outcome | Entry: `COc1cccc(OCCCN2CCCCCC2)c1`
1

Field: outcome | Entry: CSc1ncccc1C(=O)N1CCCC(CCC(=O)NCc2ccccc2F)C1 (stereo not drawn)
-1

Field: outcome | Entry: `COc1ccccc1-n1c(C)nc2cc(C(=O)NCc3ccc4c(c3)OCO4)ccc21`
-1

Field: outcome | Entry: `COc1cccc2c1cc1c(=O)n(CC(=O)N3CCN(c4ccccc4)CC3)nc(C)n12`
-1

Field: outcome | Entry: `S=C(NCCc1ccccc1)NCc1ccccc1Cl`
-1

Field: outcome | Entry: `Cc1cccc(OCCSc2nc3ccc(NC(=O)COc4ccccc4C)cc3s2)c1`
-1

Field: outcome | Entry: `Cc1ncc(CO)c(/C=N/NC(=O)c2cccc(S(=O)(=O)N3CCCC3)c2)c1O`
1

Field: outcome | Entry: `COc1ccccc1NC(=O)c1oc2ccccc2c1NC(=O)C(C)C`
-1

Field: outcome | Entry: `COc1cc(-n2c(C)nc3cc(C(=O)NCc4ccco4)ccc32)cc(OC)c1OC`
1
